# TARGET OR TEST SYSTEM: beta-catenin/TCF4 engagement (Homo sapiens)
# Construct: expressed in transfected cells; host or cells: HEK293
# Sequence (P35222 1-781): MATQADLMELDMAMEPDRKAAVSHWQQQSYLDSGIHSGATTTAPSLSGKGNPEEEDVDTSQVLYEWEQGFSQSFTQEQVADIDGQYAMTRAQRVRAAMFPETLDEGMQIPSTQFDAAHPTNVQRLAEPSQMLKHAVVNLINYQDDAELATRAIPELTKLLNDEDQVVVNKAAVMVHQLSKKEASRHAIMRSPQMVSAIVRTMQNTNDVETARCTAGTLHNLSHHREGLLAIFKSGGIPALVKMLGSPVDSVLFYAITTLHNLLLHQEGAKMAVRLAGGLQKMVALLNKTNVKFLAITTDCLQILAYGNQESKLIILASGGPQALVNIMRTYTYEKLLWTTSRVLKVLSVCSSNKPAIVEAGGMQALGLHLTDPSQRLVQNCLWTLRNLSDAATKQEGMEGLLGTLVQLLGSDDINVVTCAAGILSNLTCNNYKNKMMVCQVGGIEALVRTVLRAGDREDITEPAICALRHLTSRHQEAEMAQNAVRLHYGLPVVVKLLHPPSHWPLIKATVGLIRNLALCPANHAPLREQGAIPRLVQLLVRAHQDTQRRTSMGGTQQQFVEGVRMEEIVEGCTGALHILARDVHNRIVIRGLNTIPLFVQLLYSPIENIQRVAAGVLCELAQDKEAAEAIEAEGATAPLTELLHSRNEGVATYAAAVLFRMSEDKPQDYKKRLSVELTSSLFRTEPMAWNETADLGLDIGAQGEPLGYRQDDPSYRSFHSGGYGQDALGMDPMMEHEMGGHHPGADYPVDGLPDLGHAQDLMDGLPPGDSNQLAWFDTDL
# PROCEDURE SUMMARY: Nano-BRET target engagement assay (B-cat-Halo & TCF4-Luc in HEK293 cells)
# Assay type: cell-based
# RECORDED CONDITIONS: HEK293, @ 10 uM; read-out: NanoBRET % inh @ 10 uM
OUTCOME MEASURE: inhibition at 10 µM (%)
Form entry: value (%) — number only.

As a guide, the following entries are already answered.
>>> observed("CC(=O)N1CCC[C@]12CC=CCCCC1(CCCC=CCCCOC(=O)N3CC[C@@](C(=O)N[C@@H](Cc4ccsc4)C(=O)N[C@@H](Cc4csc5ccccc45)C(=O)N[C@@H](CCC(N)=O)C(N)=O)(C3)NC(=O)[C@H](CC(N)=O)NC(=O)[C@H](Cc3ccccc3)NC(=O)[C@H](C)NC(=O)[C@H](C)NC(=O)[C@H](CN(CC(=O)O)CC(F)(F)F)NC(=O)[C@H](CC(=O)O)NC1=O)NC(=O)[C@H](CC(C)(C)C)NC(=O)[C@H](CC(=O)O)NC2=O (stereo partly drawn)")
63.4
>>> observed("COc1ccccc1C[C@H](NC(=O)[C@]12CCN(C1)C(=O)OCCCC=CCCCC1(CCCC=CC[C@]3(CCCN3C(C)=O)C(=O)N[C@@H](CC(=O)O)C(=O)N[C@@H](CC(C)(C)C)C(=O)N1)C(=O)N[C@@H](CC(=O)O)C(=O)N[C@@H](CC(=O)O)C(=O)N[C@@H](C)C(=O)N[C@@H](C)C(=O)N[C@@H](Cc1ccccc1)C(=O)N[C@@H](CC(N)=O)C(=O)N2)C(=O)N[C@@H](Cc1csc2ccccc12)C(=O)N[C@@H](Cc1c[nH]cn1)C(N)=O (stereo partly drawn)")
24

Below: the item to evaluate.
Find inhibition at 10 µM (beta-catenin/TCF4 engagement (Homo sapiens)) for the entry CC(=O)N1CCC[C@]12CC=CCCCC1(CCCC=CCCCCCC[C@@](C)(C(=O)N[C@@H](Cc3ccsc3)C(=O)N[C@@H](Cc3csc4ccccc34)C(=O)N[C@@H](CCC(N)=O)C(N)=O)NC(=O)[C@H](CC(N)=O)NC(=O)[C@H](Cc3ccccc3)NC(=O)[C@H](C)NC(=O)[C@H](C)NC(=O)[C@H](CC(=O)O)NC(=O)[C@H](CC(=O)O)NC1=O)NC(=O)[C@H](CC(C)(C)C)NC(=O)[C@H](CC(=O)O)NC2=O (stereo partly drawn)
44.8

----------
Let's look at some compounds and their measured chromatographic logD.
# PROCEDURE SUMMARY: CHI Log D procedure
# Assay type: physicochemical
# RECORDED CONDITIONS: pH 7.4, CHI Log D
Would you mind answering with just the numeric figure?

Data request, read-out chromatographic logD, for CC(=O)N[C@@H](Cc1ccccc1)C(=O)N[C@@H](CC(=O)O)C(=O)N[C@@H](C)C(=O)N[C@]1(C)CCCCCCC=CCOC(=O)N2CC[C@@](C(=O)N[C@@H](Cc3ccccc3)C(=O)N[C@@H](Cc3c[nH]c4ccccc34)C(=O)N[C@@H](CCC(N)=O)C(N)=O)(C2)NC(=O)[C@H](C(C)C)NC(=O)[C@H](Cc2ccccc2)NC(=O)[C@H](C)NC(=O)[C@H](C)NC(=O)[C@H](Cc2cccnc2)NC(=O)[C@H](CC(=O)O)NC1=O (single isomer, unassigned)
1.65

Also need CC(=O)N1CCC[C@]12CC=CCCCC1(CCCC=CCCCOC(=O)N3CC[C@@](C(=O)N[C@@H](Cc4ccsc4)C(=O)N[C@@H](Cc4csc5ccccc45)C(=O)N[C@@H](CCC(N)=O)C(N)=O)(C3)NC(=O)[C@H](CC(C)C)NC(=O)[C@H](Cc3ccccc3)NC(=O)[C@H](C)NC(=O)[C@H](C)NC(=O)[C@H](CC(=O)O)NC(=O)[C@H](CC(=O)O)NC1=O)NC(=O)[C@H](CC(C)(C)C)NC(=O)[C@H](CC(=O)O)NC2=O (some centres unmarked) , thanks.
2.21

Also need CC(=O)N1CCC[C@]12CC=CCCCC1(CCCC=CCCCCCC[C@@](C)(C(=O)N[C@@H](Cc3ccccc3)C(=O)N[C@@H](Cc3c[nH]c4ccccc34)C(=O)N[C@@H](CCC(N)=O)C(N)=O)NC(=O)[C@H](C(C)C)NC(=O)[C@H](Cc3ccccc3)NC(=O)[C@H](C)NC(=O)[C@H](C)NC(=O)[C@H](CCC(=O)O)NC(=O)[C@H](CC(=O)O)NC1=O)NC(=O)[C@H](C)NC(=O)[C@H](Cc1c[nH]cn1)NC2=O (single isomer, unassigned) , thanks.
2.34

Also need CC(=O)N1CCC[C@]12CC=CCCCC1(CCCC=CCCCCCC[C@@](C)(C(=O)N[C@@H](Cc3ccccc3)C(=O)N[C@@H](Cc3csc4ccccc34)C(=O)N[C@@H](Cc3c[nH]cn3)C(N)=O)NC(=O)[C@H](CCCNC(N)=O)NC(=O)[C@H](Cc3ccccc3)NC(=O)[C@H](C)NC(=O)[C@H](C)NC(=O)[C@H](CCC(=O)O)NC(=O)[C@H](CC(=O)O)NC1=O)NC(=O)[C@H](CC(C)C)NC(=O)[C@H](CC(=O)O)NC2=O (some centres unmarked) , thanks.
2.41

Also need CC(=O)N1CCC[C@]12CC=CCCCC1(CCCC=CCCCOC(=O)N3CC[C@@](C(=O)N[C@@H](Cc4ccsc4)C(=O)N[C@@H](Cc4csc5ccccc45)C(=O)N[C@@H](Cc4c[nH]cn4)C(N)=O)(C3)NC(=O)[C@H](CCO)NC(=O)[C@H](Cc3ccccc3)NC(=O)[C@H](C)NC(=O)[C@H](C)NC(=O)[C@H](CC(=O)O)NC(=O)[C@H](CC(=O)O)NC1=O)NC(=O)[C@H](CC(C)(C)C)NC(=O)[C@H](CC(=O)O)NC2=O (some centres unmarked) , thanks.
2.11

----------
# TARGET OR TEST SYSTEM: beta-catenin/TCF4 engagement (Homo sapiens, UniProt P35222)
# Construct: expressed in transfected cells; host or cells: HEK293
# PROCEDURE SUMMARY: Nano-BRET target engagement assay (B-cat-Halo & TCF4-Luc in HEK293 cells)
# Assay type: cell-based
# RECORDED CONDITIONS: absolute IC50; read-out: NanoBRET Abs IC50
OUTCOME MEASURE: IC50 (µM)
Form entry: value (µM) — number only.

>>> observed("CC(=O)N1CCC[C@]12CC=CCCCC1(CCCC=CCCCOC(=O)N3CC[C@@](C(=O)N[C@@H](Cc4ccccc4C(F)(F)F)C(=O)N[C@@H](Cc4csc5ccccc45)C(=O)N[C@@H](CCC(N)=O)C(=O)N[C@@H](CC(C)C)C(=O)N[C@H](C(N)=O)[C@@H](C)O)(C3)NC(=O)[C@H](CC(C)C)NC(=O)[C@H](Cc3ccccc3)NC(=O)[C@H](C)NC(=O)[C@H](C)NC(=O)[C@H](Cc3cccc(C(=O)O)c3)NC(=O)[C@H](CC(=O)O)NC1=O)NC(=O)[C@H](CC(C)(C)C)NC(=O)[C@H](CC(=O)O)NC2=O (some centres unmarked)")
4.2

Data request, read-out IC50, for CC(=O)N1CCC[C@]12CC=CCCCC1(CCCC=CCCCOC(=O)N3CC[C@@](C(=O)N[C@@H](Cc4ccsc4)C(=O)N[C@@H](Cc4csc5ccccc45)C(=O)N[C@@H](CCC(N)=O)C(N)=O)(C3)NC(=O)[C@H](Cc3ccccc3)NC(=O)[C@H](Cc3ccccc3)NC(=O)[C@H](C)NC(=O)[C@H](C)NC(=O)[C@H](Cc3ccc(C(=O)O)cc3)NC(=O)[C@H](CC(=O)O)NC1=O)NC(=O)[C@H](CC(C)(C)C)NC(=O)[C@H](CC(=O)O)NC2=O (some centres unmarked)
16.4
